# Lookup of reported MIC keyed by entry
System: S. marcescens 1324E
Assay: Determination of Minimum Inhibitory Concentrations (MIC), agar dilution
Format: cell-based
Settings: Serratia marcescens; S. marcescens 1324E, clinical isolate; Oxoid No. 1 Nutrient agar, approximately 10^5 colony forming units, 18 hours at 37°C; read-out: MIC
measure_name: MIC (µg/mL)

* CC(=O)OCCC1=C(C(=O)O)N2C(=O)CC2S1 (racemic) | 62
* O=C(O)C1=C(CCO)SC2CC(=O)N12 (racemic) | 8
* CNC(=O)OCCC1=C(C(=O)O)N2C(=O)CC2S1 (racemic) | 4
* CC1=C(C(=O)O)N2C(=O)CC2S1 (single isomer, unassigned) | 8
* CCCC1=C(C(=O)O)N2C(=O)CC2S1 (racemic) | 1
* CCCCC1=C(C(=O)O)N2C(=O)CC2S1 (racemic) | 31
* NC(=O)OCCC1=C(C(=O)O)N2C(=O)CC2S1 (racemic) | 4
* COCC1=C(C(=O)O)N2C(=O)CC2S1 (racemic) | 4

---

Test: Toxicity (LD50) in mice
Conditions: mouse, in vivo, ip; administered intraperitoneally to mice
# Lookup of reported LD50 keyed by entry
measure_name: LD50

• O=C([O-])C1=C(CCOC2CCCCO2)SC2CC(=O)N12.[K+] (racemic) = > 500 mg/kg
• CCC1=C(C(=O)[O-])N2C(=O)CC2[S+]1[O-].[K+] (racemic) = > 500 mg/kg

---

Tested on: K. aerogenes 1522E
Test: Determination of Minimum Inhibitory Concentrations (MIC), agar dilution
Assay type: cell-based
Settings: Klebsiella aerogenes; K. aerogenes 1522E, clinical isolate; Oxoid No. 1 Nutrient agar, approximately 10^5 colony forming units, 18 hours at 37°C; read-out: MIC
Classify: Fulfilled when MIC is strictly less than 8 µg/mL; Not fulfilled when MIC is not.

- CC1=C(C(=O)O)N2C(=O)CC2S1 (single isomer, unassigned): Not fulfilled
- CNC(=O)OCCC1=C(C(=O)O)N2C(=O)CC2S1 (racemic): Fulfilled
- NC(=O)OCCC1=C(C(=O)O)N2C(=O)CC2S1 (racemic): Fulfilled
- CCCCC1=C(C(=O)O)N2C(=O)CC2S1 (racemic): Not fulfilled
- COCC1=C(C(=O)O)N2C(=O)CC2S1 (racemic): Fulfilled
- CCCC1=C(C(=O)O)N2C(=O)CC2S1 (racemic): Fulfilled

---

# Lookup of reported MIC keyed by entry
Test system: E. cloacae 1321E
Assay: Determination of Minimum Inhibitory Concentrations (MIC), agar dilution
Assay type: cell-based
Details: Enterobacter cloacae; E. cloacae 1321E, clinical isolate; Oxoid No. 1 Nutrient agar, approximately 10^5 colony forming units, 18 hours at 37°C; read-out: MIC
measure_name: MIC (µg/mL)

• NC(=O)OCCC1=C(C(=O)O)N2C(=O)CC2S1 (racemic) [Example 18] = 2
• O=C(O)C1=C(CCO)SC2CC(=O)N12 (racemic) [Example 11] = 4
• CC(=O)OCCC1=C(C(=O)O)N2C(=O)CC2S1 (racemic) [Example 13] = 2
• CC1=C(C(=O)O)N2C(=O)CC2S1 (single isomer, unassigned) [Example 6] = 8
• COCC1=C(C(=O)O)N2C(=O)CC2S1 (racemic) [Example 52] = 2
• CCCCC1=C(C(=O)O)N2C(=O)CC2S1 (racemic) [Example 26, (5RS)2-n-Butylpen-2-em-3-carboxylic acid] = 31
• CNC(=O)OCCC1=C(C(=O)O)N2C(=O)CC2S1 (racemic) [Example 21] = 4
• CCCC1=C(C(=O)O)N2C(=O)CC2S1 (racemic) [Example 28] = 0.5

---

Tested on: E. coli 851E
Assay: Determination of Minimum Inhibitory Concentrations (MIC), agar dilution
Format: cell-based
Conditions: Escherichia coli; E. coli 851E, clinical isolate; Oxoid No. 1 Nutrient agar, approximately 10^5 colony forming units, 18 hours at 37°C; read-out: MIC
Classify: Y when MIC is strictly less than 4 µg/mL; N when MIC is not.

• CCCC1=C(C(=O)O)N2C(=O)CC2S1 (racemic) [Example 28] = Y
• NC(=O)OCCC1=C(C(=O)O)N2C(=O)CC2S1 (racemic) [Example 18] = Y
• CC1=C(C(=O)O)N2C(=O)CC2S1 (single isomer, unassigned) [Example 6] = N
• CCCCC1=C(C(=O)O)N2C(=O)CC2S1 (racemic) [Example 26, (5RS)2-n-Butylpen-2-em-3-carboxylic acid] = N

---

Test system: Staph.aureus 853E
Experiment: Determination of Minimum Inhibitory Concentrations (MIC), agar dilution
Type: cell-based
Settings: Staphylococcus aureus; Staph.aureus 853E, clinical isolate; Oxoid No. 1 Nutrient agar, approximately 10^5 colony forming units, 18 hours at 37°C; read-out: MIC
measure_name: MIC (µg/mL)

- O=C(O)C1=C(CCO)SC2CC(=O)N12 (racemic): 0.5
- COCC1=C(C(=O)O)N2C(=O)CC2S1 (racemic): 0.5
- CCCCC1=C(C(=O)O)N2C(=O)CC2S1 (racemic): 0.5
- CNC(=O)OCCC1=C(C(=O)O)N2C(=O)CC2S1 (racemic): 0.2
- CC1=C(C(=O)O)N2C(=O)CC2S1 (single isomer, unassigned): 1
- CC(=O)OCCC1=C(C(=O)O)N2C(=O)CC2S1 (racemic): 0.5

Origin of values: patent EP0000636A1
